Cited source: paper PMC6261607

system: rat lung myofibroblasts (RLMyoF); assay: Impedance in primary myofibroblasts from fibrotic rat lungs; type: cell-based, Wistar rat; conditions: Rattus norvegicus, read-out: RLMyoF impedance IC50 (1 h); impedance at 1 h, S8 Fig
EXPERIMENTAL_READOUT: pIC50
The value called pIC50 is obtained by taking minus log10 of the concentration in mol/L.

Could you share which pIC50 value was measured for CCCCC[C@H](O)/C=C/[C@H]1[C@H](O)CC(=O)[C@@H]1CCCCCCC(=O)O ?
8.70

====

tested on: normal human lung fibroblasts (NHLF); assay: Nuclear count in the HCA, standard assay; assay type: cell-based; details: Homo sapiens, Fibroblast; standard HCA, NHLF, 5 ng/ml TGF–β1, 48 h; read-out: Nuclear count IC50
Reported IC50 values for the following compounds.

C[C@@H]1O[C@@H](O[C@@H]2C=C3CC[C@@H]4[C@H](CC[C@]5(C)[C@@H](c6ccc(=O)oc6)CC[C@]45O)[C@@]3(C)CC2)[C@H](O)[C@H](O)[C@H]1O
> 25 µM

Kindly consider the entry below.
Could you share which IC50 value was measured for CC(=O)O[C@H]1C[C@H](O[C@H]2[C@@H](O)C[C@H](O[C@H]3[C@@H](O)C[C@H](O[C@H]4CC[C@@]5(C)[C@H](CC[C@@H]6[C@@H]5C[C@@H](O)[C@]5(C)[C@@H](C7=CC(=O)OC7)CC[C@]65O)C4)O[C@@H]3C)O[C@@H]2C)O[C@H](C)[C@H]1O[C@@H]1O[C@H](CO)[C@@H](O)[C@H](O)[C@H]1O [Lanatoside C] ?
> 25 µM

====

test system: COL1 protein in NHLF cells; test: RapidFire MS/MS quantification of COL1 (IPQA), standard assay; assay type: cell-based, human; conditions: NHLF, 5 ng/ml TGF–β1, lysed 48 h after TGF–β1, normalized to tubulin; mean ± SD; read-out: MS / MS COL1 IC50
Friendly reminder: IC50 below 400 nM is yes (1), at or above is no (0).

Some entries whose results are on file:
COc1cccc(-c2cc(=O)c3ccccc3o2)c1N
no (0)
Nc1[nH]nc2nnc(-c3c(-c4ccccc4)nn4ccccc34)cc12
no (0)

Consider the compound COc1cc(O)c2c(c1)/C=C/C[C@H](O)[C@H](O)C(=O)/C=C\C[C@H](C)OC2=O . Is its IC50 strictly less than 400 nM?
no (0)

Consider the compound CCn1c(-c2nonc2N)nc2cnc(Oc3cccc(NC(=O)c4ccc(OCCN5CCOCC5)cc4)c3)cc21 . Is its IC50 strictly less than 400 nM?
no (0)

Consider the compound Cc1cccc(-c2[nH]c(C(C)(C)C)nc2-c2ccc3nccnc3c2)n1 . Is its IC50 strictly less than 400 nM?
yes (1)

Consider the compound O=C(NCc1cccc(O)c1)Nc1nc(-c2ccncc2)cs1 . Is its IC50 strictly less than 400 nM?
no (0)

Consider the compound Cc1cccc(-c2[nH]c(CNc3ccccc3F)nc2-c2ccc3ncnn3c2)n1 . Is its IC50 strictly less than 400 nM?
yes (1)

Consider the compound O=C1CC[C@H](/C=C/[C@@H](O)Cc2ccccc2)N1CCCCCCc1nn[nH]n1 [Merck–19a] . Is its IC50 strictly less than 400 nM?
yes (1)

====

test system: α–SMA protein in TGF–β1–induced NHLF myofibroblasts; assay: MS/MS α–SMA, NHLF myofibroblast reversal assay; assay type: cell-based, human; details: reversal assay: 24 h 5 ng/ml TGF–β1, washed, 72 h compound; normalized to tubulin; read-out: MS / MS α–SMA IC50
EXPERIMENTAL_READOUT: pIC50
The value called pIC50 is obtained by taking minus log10 of the concentration in mol/L.

Could you share which pIC50 value was measured for CCn1c(-c2nonc2N)nc2cnc(Oc3cccc(NC(=O)c4ccc(OCCN5CCOCC5)cc4)c3)cc21 [GSK–269962] ?
7.46
